Source listed as PubChem BioAssay AID1159580.

A collection of molecules and their measured normalized growth
# TEST: chemical genetic growth profiling, strain panel (AID 1159580);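 also: tested at 20 µM; growth read once vehicle control cultures reached saturation at 30 °C; 1 = growth at the plate median or of vehicle wells; lower values mean less growth of the strain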
# REPORTED_CONDITIONS: S. cerevisiae deletion strains, growth OD, locus YLL041C, strain sdh2, active compounds read low
Hit rate of the full screen: of about 5,500 compounds, about 2,000 (36%) were called active. About 18% were inconclusive and are not listed. Some of the results follow. Where a SMILES comes first, the peptide text is derived from it.
Keep the answer to the number alone.

[[record]]
molecule = "COC(=O)[C@H](Cc1ccccc1)NC(=O)[C@@H](N)CC(=O)O (H-Asp-Phe-OMe)"
quantitative_readout = 1.02


normalized growth in this record for C=C[C@H]1CN2CC[C@H]1C[C@@H]2[C@@H](OC(=O)OCC)c1ccnc2ccc(OC)cc12 : 0.976

normalized growth in this record for O=c1c(O)c(-c2ccc(O)c(O)c2)oc2c(O)c(O)cc(O)c12 : 1.01

normalized growth in this record for C[C@@H]1O[C@@H](OC[C@H]2OC(Oc3c(-c4ccc(O)c(O)c4)oc4cc(O)cc(O)c4c3=O)[C@H](O)[C@@H](O)[C@@H]2O)[C@H](O)[C@H](O)[C@H]1O (some centres undefined) : 0.995

---

# TEST: chemical genetic growth profiling, strain panel (AID 1159580)
# REPORTED_CONDITIONS: S. cerevisiae deletion strains, growth OD, locus YDR162C, strain NBP2
The campaign covered roughly 5,500 compounds. About 2,000 (36%) were called active. About 18% were inconclusive and are not listed. Cut-off read from the data, not from the text of the source: active = normalized growth mostly below about 0.91 (no sharp cut-off); inconclusive = no clear call, values can overlap the other calls; inactive = mostly above about 0.92. This is one part of the list.
Your answer must be one of the following: active, inactive

Reference set (4 entries):
[[record]]
molecule = "C=C[C@H]1CN2CC[C@H]1C[C@@H]2[C@@H](OC(=O)OCC)c1ccnc2ccc(OC)cc12"
class_assignment = "inactive"

[[record]]
molecule = "NC(=O)c1ncn([C@@H]2O[C@H](CO)[C@@H](O)[C@H]2O)n1"
class_assignment = "inactive"

[[record]]
molecule = "CC(=O)[C@@]1(O)CCC2C3C[C@H](C)C4=CC(=O)C=CC4(C)[C@@]3(F)[C@@H](O)C[C@@]21C (stereo not given in full)"
class_assignment = "inactive"

[[record]]
molecule = "CCN(Cc1ccncc1)C(=O)C(CO)c1ccccc1 (stereo not given)"
class_assignment = "inactive"


Moving on to the next molecule.
IN: Please share the test call associated with CC(C)C1COc2cc3oc(=O)ccc3cc2O1 (stereo not given) .
OUT: active

---

A collection of compounds and their measured normalized growth
# TEST: chemical genetic growth profiling, strain panel (AID 1159580)
# REPORTED_CONDITIONS: S. cerevisiae deletion strains, growth OD, locus YAL021C, strain ccr4, active compounds read low
Out of some 5,500 compounds screened, about 2,000 (36%) were called active. Another 18% or so got no clear call; they are omitted. Some of the results follow.
Keep the answer to the number alone.

[[record]]
compound = "CCC(c1ccc(O)cc1)C(CC)c1ccc(O)cc1 (stereo not drawn)"
quantitative_readout = 0.93

[[record]]
compound = "CC(C)c1c(O)ccc2c1CCC1C(C)(C)CCC[C@]21C (stereo partly drawn)"
quantitative_readout = 0.888

[[record]]
compound = "CC(C)c1c(O)c(-c2cc3c(c(C(C)C)c2O)CCC2C(C)(C)CCC[C@]32C)cc2c1CCC1C(C)(C)CCC[C@]21C (stereo partly drawn)"
quantitative_readout = 0.987

[[record]]
compound = "CCCCCc1c2c(cc(O)c1C(=O)O)OC(=O)c1c(cc(OC)cc1C(=O)CCCC)O2"
quantitative_readout = 0.954

[[record]]
compound = "O=C(Cc1cccs1)NC1C(=O)N2C(C(=O)[O-])=C(C[n+]3ccccc3)CSC12 (stereo not drawn)"
quantitative_readout = 0.966


normalized growth in this record for O=c1ccc2cc(OC3OC(CO)C(O)C(O)C3O)c(O)cc2o1 (stereo not drawn) : 0.959

normalized growth in this record for COc1ccc(-c2oc3cc(O[C@H]4O[C@H](CO)[C@@H](O)[C@H](O)[C@H]4O)c(OC)c(O)c3c(=O)c2OC)cc1O : 1.01

---

A collection of compounds and their measured normalized growth
# TEST: chemical genetic growth profiling, strain panel (AID 1159580);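 also: tested at 20 µM; growth read once vehicle control cultures reached saturation at 30 °C; 1 = growth at the plate median or of vehicle wells; lower values mean less growth of the strain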
# REPORTED_CONDITIONS: S. cerevisiae deletion strains, growth OD, locus YMR205C, strain PFK2, active compounds read low
Hit rate of the full screen: of about 5,500 compounds, about 2,000 (36%) were called active. Not shown: some 18% with an inconclusive outcome. The list shows a part of the results.
Keep the answer to the number alone.

Use these answered entries as a reference point.
[[record]]
compound = "CC(=O)[C@@]1(O)CCC2C3C[C@H](C)C4=CC(=O)C=CC4(C)[C@@]3(F)[C@@H](O)C[C@@]21C (stereo partly specified)"
readout = "normalized growth"
quantitative_readout = 0.975

[[record]]
compound = "CNC(C)C(O)c1ccccc1 (stereo unspecified)"
readout = "normalized growth"
quantitative_readout = 1.01

[[record]]
compound = "COc1ccc2ccc(=O)oc2c1"
readout = "normalized growth"
quantitative_readout = 1.06

[[record]]
compound = "N#Cc1nn(-c2c(Cl)cc(C(F)(F)F)cc2Cl)c(N)c1S(=O)C(F)(F)F (stereo unspecified)"
readout = "normalized growth"
quantitative_readout = 0.981


normalized growth in this record for CCC(=O)c1c(O)cc(O)cc1O : 0.998

normalized growth in this record for CC(C)(C)NCC(O)c1cc(O)cc(O)c1 (stereo unspecified) : 0.984

---

A collection of molecules and their measured normalized growth
# TEST: chemical genetic growth profiling, strain panel (AID 1159580);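 also: tested at 20 µM; growth read once vehicle control cultures reached saturation at 30 °C; 1 = growth at the plate median or of vehicle wells; lower values mean less growth of the strain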
# REPORTED_CONDITIONS: S. cerevisiae deletion strains, growth OD, locus YFL029C, strain CAK1, active compounds read low
Screen size: about 5,500 compounds; about 2,000 (36%) were called active. Roughly 18% stayed inconclusive and do not appear here. The list shows a part of the results.
Keep the answer to the number alone.

Use these answered entries as a reference point.
[[record]]
molecule = "CC(C)(C)NC(=S)N/N=C\\c1ccccc1O"
quantitative_readout = 0.947

[[record]]
molecule = "O=C1Nc2ccccc2/C1=C\\c1cccc([N+](=O)[O-])c1"
quantitative_readout = 0.982

[[record]]
molecule = "OC1(C(F)(F)F)CC(c2ccc3ccccc3c2)=NN1 (centres undefined)"
quantitative_readout = 0.16

[[record]]
molecule = "c1ccc(-c2nnc(-c3ccccn3)nc2-c2ccccc2)cc1"
quantitative_readout = 0.806

[[record]]
molecule = "Cc1cc(Cl)ccc1NNC(=O)c1sccc1Cl"
quantitative_readout = 0.883


normalized growth in this record for O=C1Nc2ccccc2/C1=C/c1ccc(C(F)(F)F)cc1Cl : 0.979

normalized growth in this record for O=C1Nc2ccccc2/C1=C\c1c(Cl)cccc1Cl : 0.961

normalized growth in this record for O=C1/C(=C/c2ccccn2)CCc2ccccc21 : 0.912

normalized growth in this record for CC(NC(=S)N/N=C\c1ccccc1O)c1ccccc1 (centres undefined) : 0.974

normalized growth in this record for O=S(=O)(CS(=O)(=O)Oc1ccc(Cl)c(Cl)c1)Oc1ccc(Cl)c(Cl)c1 : 0.95

normalized growth in this record for FC(F)(F)c1ccc(N2CCc3ccccc3C2)c(NC(=S)Nc2cc(Cl)cc(Cl)c2)c1 : 0.975

normalized growth in this record for O=C(Nc1ccccc1)Nc1ccc(Cl)cc1[N+](=O)[O-] : 0.977

normalized growth in this record for FC(F)(F)c1cccc(NC(=S)NN=C2CCCCCC2)c1 : 0.983

normalized growth in this record for COc1ccccc1NC(=S)N/N=C\c1ccccc1O : 0.953

normalized growth in this record for O=[N+]([O-])c1cc(Cl)cc([N+](=O)[O-])c1Nc1ccccc1 : 0.929

normalized growth in this record for Oc1c(Cl)cc(Cl)cc1/C=N\NC(=S)Nc1cc(C(F)(F)F)cc(C(F)(F)F)c1 : 0.784

normalized growth in this record for Cc1ccc(NNC(=O)c2cccs2)cc1Cl : 0.966

---

# TEST: chemical genetic growth profiling, strain panel (AID 1159580);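 also: tested at 20 µM; growth read once vehicle control cultures reached saturation at 30 °C; 1 = growth at the plate median or of vehicle wells; lower values mean less growth of the strain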
# REPORTED_CONDITIONS: S. cerevisiae deletion strains, growth OD, locus YNL307C, strain MCK1 (second series), active compounds read low
Out of some 5,500 compounds screened, about 2,000 (36%) were called active. Another 18% or so got no clear call; they are omitted. The list shows a part of the results.
Class (required): determined from normalized growth; valid ranges are low = under 0.5, medium = from 0.5 up to 0.9, high = 0.9 and over

Reference set (5 entries):
[[record]]
compound = "Oc1c(Br)cc(Br)cc1C=Nc1ccccn1"
class_assignment = "low"

[[record]]
compound = "Oc1c(Br)cc(Br)cc1C=Nc1ccc(Sc2ccccc2)nc1Sc1ccccc1"
class_assignment = "low"

[[record]]
compound = "COc1ccc(/C=C2/C(=O)Nc3ccccc32)cc1"
class_assignment = "medium"

[[record]]
compound = "OC1(C(F)(F)F)CC(c2ccc3ccccc3c2)=NN1 (stereo not drawn)"
class_assignment = "low"

[[record]]
compound = "O=C(NNc1ccc(F)cc1F)c1sccc1Cl"
class_assignment = "medium"


IN: Which category fits this record: Oc1c(Cl)cc(Cl)cc1C=Nc1ccc(Sc2ccccc2)nc1Sc1ccccc1
OUT: medium

IN: Which category fits this record: Cc1ccc(C)n1-c1ccc(/C=C2/C(=O)Nc3ccccc32)cc1
OUT: high

IN: Which category fits this record: O=C1Nc2ccccc2/C1=C\c1cccc([N+](=O)[O-])c1
OUT: high

IN: Which category fits this record: Oc1c(Br)cc(Br)cc1/C=N\n1cnnc1
OUT: low
